B1: HSP90AB1 (parent)
chain: QVANSAFVERVRKRGFEVVYMTEP

- Variants of: B1
- PROCEDURE DETAILS: protein stability index of a GFP-peptide fusion (GPS, HEK-293T) (PSI 1-6); higher = more stable;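 also: lentivirally expressed fusions sorted by FACS into six bins by GFP to DsRed ratio, PSI derived from sequencing read proportions per bin multiplied by bin number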
- PARTICULARS: c terminus: a fixed tail appended
Lab note: anything with protein stability index at or over 2 counts as Criterion met; the rest go in Criterion not met.

Take a look at these entries with their results.
MUTATION DESCRIPTOR | LABEL
E17Q | Criterion not met
V8M | Criterion met
A3I | Criterion met
V19T | Criterion met
R14N | Criterion met

[Q] Please check the record `V2G` and state if its protein stability index is at or above 2.
[A] Criterion met

[Q] Is the recorded value of protein stability index equal to or greater than 2 for this variant? `T22C`
[A] Criterion met

[Q] Determine whether this variant has protein stability index no lower than 2: `V18S`
[A] Criterion met

[Q] Evaluate `V11T` : protein stability index at minimum 2?
[A] Criterion met

[Q] Quick check: does `E9K` have protein stability index greater than or equal to 2?
[A] Criterion met

[Q] Threshold query (protein stability index >= 2) on `N4Y`
[A] Criterion not met

[Q] Test whether the variant `R14F` records protein stability index of 2 or higher.
[A] Criterion not met

[Q] Dear colleague, could you confirm whether `R12H` has protein stability index at or above 2?
[A] Criterion met

[Q] Item `Q1C` with protein stability index of 2 or above?
[A] Criterion not met

[Q] Check the entry `E23V` : does protein stability index equal or exceed 2?
[A] Criterion met

[Q] Item `V11W` with protein stability index of 2 or above?
[A] Criterion not met

[Q] Could you verify whether the entry `S5R` shows protein stability index of no less than 2?
[A] Criterion not met

[Q] Say whether `E9L` shows protein stability index of 2 or more.
[A] Criterion met

[Q] I'd appreciate it if you could say whether `T22E` has protein stability index at least equal to 2.
[A] Criterion met
